MEASURED_ON: recombinant PKCδ (Homo sapiens)
Construct: purchased Invitrogen
Sequence (Q05655 whole entry): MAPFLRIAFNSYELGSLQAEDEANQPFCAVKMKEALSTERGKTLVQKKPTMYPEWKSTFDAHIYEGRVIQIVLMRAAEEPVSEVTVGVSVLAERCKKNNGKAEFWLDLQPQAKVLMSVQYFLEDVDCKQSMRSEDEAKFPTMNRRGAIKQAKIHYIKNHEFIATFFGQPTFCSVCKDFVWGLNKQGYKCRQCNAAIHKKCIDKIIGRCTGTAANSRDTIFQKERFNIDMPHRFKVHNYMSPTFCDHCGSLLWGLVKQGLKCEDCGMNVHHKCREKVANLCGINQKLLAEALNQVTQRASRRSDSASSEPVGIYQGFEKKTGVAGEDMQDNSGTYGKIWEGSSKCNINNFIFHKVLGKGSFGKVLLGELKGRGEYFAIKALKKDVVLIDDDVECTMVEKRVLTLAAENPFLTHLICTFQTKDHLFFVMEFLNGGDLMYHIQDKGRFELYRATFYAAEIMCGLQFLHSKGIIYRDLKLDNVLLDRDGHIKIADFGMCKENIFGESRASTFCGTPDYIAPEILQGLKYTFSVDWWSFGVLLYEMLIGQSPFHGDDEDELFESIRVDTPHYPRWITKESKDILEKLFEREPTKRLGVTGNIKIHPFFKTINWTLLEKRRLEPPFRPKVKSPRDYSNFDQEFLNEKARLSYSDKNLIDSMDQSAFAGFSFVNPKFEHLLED
ASSAY_OVERVIEW: PKC kinase activity assay (Z-lyte), PKCδ
Type: biochemical
SETUP_CONDITIONS: PKCδ IC50, in vitro kinase assay

>  <MOLECULE>
CC(=O)c1c(O)c(C)c(O)c(Cc2c(O)c3c(c(C(=O)/C=C/c4ccccc4)c2O)OC(C)(C)C=C3)c1O [rottlerin, Rottlerin, reference compound]

>  <IC50>
~5 µM

$$$$

----------
MEASURED_ON: recombinant PKCα (Homo sapiens, UniProt P17252)
Construct: purchased Invitrogen
ASSAY_OVERVIEW: PKC kinase activity assay (Z-lyte), PKCα
Assay type: biochemical

>  <COMPOUND>
CC(=O)c1c(O)c(C)c(O)c(Cc2c(O)c3c(c(C(=O)/C=C/c4ccccc4)c2O)OC(C)(C)C=C3)c1O [rottlerin, Rottlerin, reference compound]

>  <IC50, µM>
75

$$$$

These data points were gathered from paper PMC3927586.
